Source of measurements: patent US11485742B2

Target: human cloned CHRM5 receptor (Homo sapiens)
Sequence (P08912 1-532): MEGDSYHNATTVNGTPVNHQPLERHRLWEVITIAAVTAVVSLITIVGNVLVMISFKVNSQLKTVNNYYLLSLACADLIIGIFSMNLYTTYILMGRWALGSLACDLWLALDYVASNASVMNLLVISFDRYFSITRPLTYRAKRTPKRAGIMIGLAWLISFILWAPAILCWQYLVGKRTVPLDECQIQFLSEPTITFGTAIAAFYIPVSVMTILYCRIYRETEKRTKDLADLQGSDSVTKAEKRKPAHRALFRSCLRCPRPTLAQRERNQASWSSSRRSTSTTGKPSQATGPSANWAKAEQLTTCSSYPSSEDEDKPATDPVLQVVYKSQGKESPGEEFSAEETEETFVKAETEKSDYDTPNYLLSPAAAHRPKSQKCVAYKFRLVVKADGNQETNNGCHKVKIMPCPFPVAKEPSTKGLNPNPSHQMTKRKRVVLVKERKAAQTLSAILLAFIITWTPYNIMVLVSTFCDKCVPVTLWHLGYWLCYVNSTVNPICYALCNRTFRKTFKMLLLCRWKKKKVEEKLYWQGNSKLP
Experiment: CHRM5 Ca++ Flux Assay (M5_CHO cells, agonist mode)
Details: agonist mode, geometric mean if tested more than once, read-out: M5 FDSS EC50
pEC50: −log10 of the molar value.
readoutName: pEC50

- compound: "Fc1ccc(OC2COC2)c(C2CCN([C@@H]3COC4(C3)CN(c3nnco3)C4)CC2)c1"
  assaySystem: "human cloned CHRM5 receptor (Homo sapiens)"
  readoutName: "pEC50"
  reading: "< 4.60"
- compound: "c1ccc(C2CCN([C@@H]3COC4(C3)CN(c3ncco3)C4)CC2)c(OC2COC2)c1"
  assaySystem: "human cloned CHRM5 receptor (Homo sapiens)"
  readoutName: "pEC50"
  reading: "< 4.60"
- compound: "C[C@H](Oc1ccc(F)cc1C1CCN([C@@H]2COC3(C2)CN(c2nnco2)C3)CC1)C1CCOCC1 [Example 2X]"
  assaySystem: "human cloned CHRM5 receptor (Homo sapiens)"
  readoutName: "pEC50"
  reading: "< 4.60"
- compound: "Fc1cc(F)c(O[C@@H]2CCOC2)c(C2CCN([C@@H]3COC4(C3)CN(c3nnco3)C4)CC2)c1"
  assaySystem: "human cloned CHRM5 receptor (Homo sapiens)"
  readoutName: "pEC50"
  reading: "< 4.60"
